measurement_target: Hexokinase-4 (Homo sapiens, UniProt P35557)
Sequence (P35557 whole entry): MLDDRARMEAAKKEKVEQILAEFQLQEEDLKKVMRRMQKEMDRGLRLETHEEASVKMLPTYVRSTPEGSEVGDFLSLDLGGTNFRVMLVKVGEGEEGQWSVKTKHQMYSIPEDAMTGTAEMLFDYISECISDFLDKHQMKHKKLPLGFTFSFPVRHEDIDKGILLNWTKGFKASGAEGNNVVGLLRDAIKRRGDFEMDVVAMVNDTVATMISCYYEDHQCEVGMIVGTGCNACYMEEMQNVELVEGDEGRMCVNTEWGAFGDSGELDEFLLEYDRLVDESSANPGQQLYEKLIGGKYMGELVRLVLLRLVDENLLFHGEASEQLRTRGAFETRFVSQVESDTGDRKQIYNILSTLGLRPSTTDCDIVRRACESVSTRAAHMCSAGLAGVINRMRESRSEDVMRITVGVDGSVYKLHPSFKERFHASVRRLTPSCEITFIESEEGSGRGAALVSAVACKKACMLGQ
method: Activation of recombinant human glucokinase assessed as conversion of D-glucose to D-glucose-6-phosphate in presence of 10 mM glucose by G6PDH coupled spectrophotometric assay
measurement_type: log10 of EC50 (log10 of the value in nM)

- compound: "CCS(=O)(=O)c1ccc(Oc2cc3cc(-c4ccc(C(F)(F)F)cn4)[nH]c3cc2C2CCC(=O)N2C)cc1 (centres undefined)"
  measurement_type: "log10 of EC50"
  value_measured: 0.15
- compound: "COC(=O)c1ccc(-c2cc3cc(Oc4ccc(S(C)(=O)=O)nc4)c(C4CCC(=O)N4C)cc3[nH]2)nc1 (racemic)"
  measurement_type: "log10 of EC50"
  value_measured: 0.53
- compound: "CN1C(=O)CCC1c1cc2[nH]c(-c3cnccn3)cc2cc1Oc1ccc(S(C)(=O)=O)nc1 (stereo in doubt; 3-en)"
  measurement_type: "log10 of EC50"
  value_measured: 1.26
- compound: "Cc1cnc(-c2cc3cc(Oc4ccc(S(C)(=O)=O)nc4)c(C4CCC(=O)N4C)cc3[nH]2)s1 (single isomer, unassigned)"
  measurement_type: "log10 of EC50"
  value_measured: 0.58
- compound: "CCOC(=O)c1ccc(Oc2cc3cc(-c4ccc(C(F)(F)F)cn4)[nH]c3cc2C2CCC(=O)N2C)cc1 (centres undefined)"
  measurement_type: "log10 of EC50"
  value_measured: 0.96
- compound: "Cc1cnc(-c2cc3cc(Oc4ccc(S(C)(=O)=O)nc4)c(C4CCC(=O)N4C)cc3[nH]2)s1 (stereo in doubt; 2-en)"
  measurement_type: "log10 of EC50"
  value_measured: 0.00
- compound: "CN1C(=O)CCC1c1cc2[nH]c(-c3ccc(C(C)(C)O)cn3)cc2cc1Oc1ccc(S(C)(=O)=O)nc1 (stereo in doubt; 4-en)"
  measurement_type: "log10 of EC50"
  value_measured: 0.99
- compound: "CN1C(=O)CCC1c1cc2[nH]c(-c3cnccn3)cc2cc1Oc1ccc(S(C)(=O)=O)nc1 (stereo in doubt; 3)"
  measurement_type: "log10 of EC50"
  value_measured: 0.62
- compound: "CN1C(=O)CCC1c1cc2[nH]c(-c3ccccn3)cc2cc1Oc1ccc(S(C)(=O)=O)nc1 (single isomer, unassigned; ent-1)"
  measurement_type: "log10 of EC50"
  value_measured: 0.38
- compound: "CN1C(=O)CCC1c1cc2[nH]c(-c3ccc(C(C)(C)O)cn3)cc2cc1Oc1ccc(S(C)(=O)=O)nc1 (stereo in doubt; 4)"
  measurement_type: "log10 of EC50"
  value_measured: 0.32
- compound: "CN1C(=O)CCC1c1cc2[nH]c(-c3ccccn3)cc2cc1Oc1ccc(S(C)(=O)=O)nc1 (stereo in doubt; 1-en)"
  measurement_type: "log10 of EC50"
  value_measured: -0.10
- compound: "CN1C(=O)CCC1c1cc2[nH]c(-c3ccc(C(F)(F)F)cn3)cc2cc1Oc1ccc(C(=O)O)cc1 (centres undefined)"
  measurement_type: "log10 of EC50"
  value_measured: 0.98
- compound: "CN1C(=O)CCC1c1cc2[nH]c(-c3ccc(C(F)(F)F)cn3)cc2cc1Oc1ccc(S(C)(=O)=O)nc1 (single isomer, unassigned; ent-2)"
  measurement_type: "log10 of EC50"
  value_measured: 1.49
